system: MS2 coat protein; assay: apparent KD of MS2 coat protein; designed switch direction (-1 OFF switch, 1 ON switch): -1; higher = weaker reporter binding; details: input ligand: FMN 200 uM
Measure: apparent KD of MS2 coat protein (nM)

INSERT INTO results (sequence_chain, result_number) VALUES
  ('AUAAAUAAUGCAGGAUAUGUCGGCGAAAGGCCGGCAGAAGGGCAGCGUGGAUGUAUCCUGAACAUGAGGAUCACCCAUGUGAAA [Ederisbi] (Eterna round: R96, puzzle: Exclusion NG 1)', 209),
  ('GUCAACGCAGGAUAUUAGAACUUUUACAUGAGGAUCACCCAUGUUAAUUGGGUCUAAGAAUAAGAAGGGCGAUGAA [JR_Ex5_Sub011] (Eterna round: R97, puzzle: Exclusion 5)', 15.8),
  ('AGCACUAUCACGAAAGUGAUAGUGCAAUAAGCAAGUGAAACAUGAGGAUCACCCAUGUCCUCAAUUGCUCGUCUUAU [Mat - Sensor v2 -ver2- JL mod - D81] (Eterna round: R96, puzzle: Sensor v2, turn-off variant 2)', 49.3),
  ('GGGCUGUCAGGAUAUUCGAGUUCGAGUGAAAGCUUGAGCUUGAAGAAGGGACAUGAGGAUCACCCAUGUGGCCC [-32.1, -31.1 kcal, A 26%, 1bis-0] (Eterna round: R97, puzzle: Exclusion 4)', 30.5),
  ('UUAUAGUAUGUAGGAUAUCGGUCAGUUUCUGAUCGAGAAGGACAUGAGGAUCACCCAUGUAAGGCUACCGGUUUCUGGUGGCCU [JL ENG1 3.52] (Eterna round: R96, puzzle: Exclusion NG 1)', 94.4),
  ('AGCUAGUCAGGAUAUUCUAUUAAUUACAUGAGGAUCACCCAUGUGAAUGGACAAGGGUGUGAAGAAGGGACUAGCG [Omei Ex5 A13] (Eterna round: R97, puzzle: Exclusion 5)', 394),
  ('CCUCCACAGGAGGAUAUCAUCAAACUAUUGUGAUGAGAAGGCCUGACAUGAGGAUCACCCAUGUUAACGUGAUG [Mod of Brourd 8 - Jieux - Exclusion 6] (Eterna round: R97, puzzle: Exclusion 6)', 209),
  ('CCAUAGUGAGGAUAUGUAAACGUGUUGGCGAAAUCAGCACGGCAGAAGGCACAUGAGGAUCACCCAUGUCCUGA [Eternabot (L2) Solution 45] (Eterna round: R97, puzzle: Exclusion 4)', 25.9),
  ('UAAAUCGCAGGAUAUCCAGAGGAGGACAUGAGGAUCACCCAUGUGGAAAGGAAAGGAGGAGGAGAAGGGCGAUUUA [Paired] (Eterna round: R97, puzzle: Exclusion 5)', 84.4),
  ('GCCAAUGUGGAGGAUAUCGACUUCGAAAGAAGUCGAGAAGGCCACACAUGAGGAUCACCCAUGUGAUGCCAGGC [Omei Ex6 H10] (Eterna round: R97, puzzle: Exclusion 6)', 216),
  ('GCACGGAGUGCAGGAUAUCUGUGCGAUUAGCUCAGAGAAGGGCACAUGAGGAUCACCCAUGUGUAUAAACACAAUAAUCCGUGC [Eli exng1 - 068] (Eterna round: R96, puzzle: Exclusion NG 1)', 18.6),
  ('UGUCAGUCAGGAUAUGCAUACGUAGACAUGAGGAUCACCCAUGUGACGUGGGCCUGGUGUGUAGAAGGGACGAACA [EX5 #80] (Eterna round: R97, puzzle: Exclusion 5)', 48.5),
  ('CUGAGCAGACGGAGAUCCCACAUGAGGAUCACCCAUGUCUCAAAAGCUUUUUGCUUGUCUUAUUCUCCUCUGUUCUC [Arorza] (Eterna round: R96, puzzle: Sensor v3, turn-off variant 1)', 13.7),
  ('GGUAGAGUGGUAGGAUAUCCGACUGAAACAGACGGAGAAGGACCACAGUCACUGGGUCCACUUAUAAUUAACAAUAAAUCUACC [pwkr exNG1 F6.2] (Eterna round: R96, puzzle: Exclusion NG 1)', 326),
  ('GAAAACGUAGGAUAUUAAUACUUAUACAUGAGGAUCACCCAUGUUUGGUGGGUUUAAGAAUGAGAAGGGCGAUGAA [EX5 #8] (Eterna round: R97, puzzle: Exclusion 5)', 446),
  ('AACCUGAGGCUUUGCUUUAGGUGUACAUGAGGAUCACCCAUGUAGGAUAUGGUAGGCUUUGCUUACCAGAAGGACAUAAUGAUG [JL ENG3 1.16] (Eterna round: R96, puzzle: Exclusion NG 3)', 81.1),
  ('ACCCUAAUCGUGAGGAUAUACUGCGUCAAAGACGGGUAGAAGGUACAUGAGGAUCACCCAUGUUUGGCUACUAA [Eternabot (L2) Solution 48] (Eterna round: R97, puzzle: Brourd''s mod of Exclusion 4)', 28.3),
  ('GGAUGUUCAGAGGAUAUCGAUCCCGAGACCGGGCGAGAAGGUUGAACAUGAGGAUCACCCAUGUGAGGCCUAAC [Cebezais] (Eterna round: R97, puzzle: Exclusion 6)', 38.5),
  ('CCGGAAAGGAAGGAUAUGCUAGACGAGAGUCUAGCAGAAGGUCCUACAUGAGGAUCACCCAUGUGUCCUACCGG [Mat - Exclusion 6 - Eli Mod - D38] (Eterna round: R97, puzzle: Exclusion 6)', 69.6);
